molecular target: PARP1 (Homo sapiens, UniProt P09874); construct: purchased Trevigen; assay: Determination of PARP1 inhibitory activity (Universal PARP colorimetric assay kit, Trevigen); format: biochemical; conditions: PARP1 enzyme inhibition rate; footnote: inhibition rate below 500 nM unless indicating otherwise
Sequence (P09874 whole entry): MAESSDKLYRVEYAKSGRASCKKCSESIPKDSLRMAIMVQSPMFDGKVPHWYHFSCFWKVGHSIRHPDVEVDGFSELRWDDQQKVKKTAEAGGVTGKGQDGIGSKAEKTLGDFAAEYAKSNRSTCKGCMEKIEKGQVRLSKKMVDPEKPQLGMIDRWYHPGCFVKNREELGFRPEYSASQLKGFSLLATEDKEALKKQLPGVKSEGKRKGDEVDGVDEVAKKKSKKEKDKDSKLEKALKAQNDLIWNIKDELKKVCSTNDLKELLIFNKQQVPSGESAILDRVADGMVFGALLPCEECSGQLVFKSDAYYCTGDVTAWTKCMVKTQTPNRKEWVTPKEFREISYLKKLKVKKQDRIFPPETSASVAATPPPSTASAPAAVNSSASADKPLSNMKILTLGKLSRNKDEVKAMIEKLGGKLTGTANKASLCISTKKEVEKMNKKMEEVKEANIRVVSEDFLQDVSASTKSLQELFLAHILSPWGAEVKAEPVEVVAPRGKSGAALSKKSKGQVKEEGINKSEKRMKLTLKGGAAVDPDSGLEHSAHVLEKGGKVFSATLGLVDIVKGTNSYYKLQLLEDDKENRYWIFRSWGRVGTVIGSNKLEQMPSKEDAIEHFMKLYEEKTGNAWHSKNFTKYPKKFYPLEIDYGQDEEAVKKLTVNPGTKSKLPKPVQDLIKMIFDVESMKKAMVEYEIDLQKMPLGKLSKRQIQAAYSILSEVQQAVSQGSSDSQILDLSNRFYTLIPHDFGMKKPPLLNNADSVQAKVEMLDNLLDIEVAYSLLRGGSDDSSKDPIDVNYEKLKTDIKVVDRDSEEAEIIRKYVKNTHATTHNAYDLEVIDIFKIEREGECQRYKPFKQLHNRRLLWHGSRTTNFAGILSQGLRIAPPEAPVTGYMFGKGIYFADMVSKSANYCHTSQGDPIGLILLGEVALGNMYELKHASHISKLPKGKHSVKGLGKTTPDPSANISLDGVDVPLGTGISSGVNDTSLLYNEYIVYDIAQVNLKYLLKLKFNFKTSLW
We begin with a simple list: items and their reported Inhibition (%).
Answer in %, number only, no unit symbol.

CN1CCC(N(C)CC2=CN3C(=Nc4cccc5c(=O)[nH]nc3c45)C=C2)CC1 = 88.97

The reported value for "O=c1[nH]nc2c3c(cccc13)N=C1C=CC(CN3CCCCC3)=CN12" in terms of Inhibition (%) is 91.67

The reported value for "O=c1[nH]nc2c3c(cccc13)N=C1C=CC(CN3CCc4ccc(F)cc4C3)=CN12" in terms of Inhibition (%) is 79.67

The reported value for "CN(CC1=CN2C(=Nc3cccc4c(=O)[nH]nc2c34)C=C1)C1CCN(c2ccccc2)CC1" in terms of Inhibition (%) is 92.42
